Kindly state logP for each of the entries shown.
- assayName: Partition coefficient (logP)
- Format: physicochemical
- conditionParameters: octanol/water; read-out: logP
Answer as a number with no unit attached.

logP reported for this compound `O=C1C(=O)c2ncccc2C(O)=C1CCCCCCCCC1CCCCC1` : 6.5

The value of logP measured for the compound `COc1ccc(/N=C2/C(N)=CC(=O)c3ncccc32)cc1` turned out to be 1.5

// field: logP; key: `CCCCCCCCCCC1=C(O)C(=O)c2ccc(OC)cc2C1=O` ; value = 6.47

Recorded result, `CCN(CC)C1=CC(=O)C(=O)c2ccccc21` , logP: 3.28

Given item `Cc1ccc2c(c1)C(=O)C(O)=C(CCC(C)C)C2=O` , the value recorded as its logP is 4.26

Quick note, logP for `Cc1ccc(/N=C2/C(N)=CC(=O)c3ncccc32)cc1C` landed at 2.5

Lookup result for `COc1ccc(/N=C2/C(Nc3ccc(OC)cc3)=CC(=O)c3ncccc32)cc1` ; measured logP: 4.5

logP recorded for this compound, `CCCCCC/N=C1/C=C(O)C(=O)c2ccc(C)nc21` , is 1.5

# logP of `NC1=CC(=O)c2ncccc2/C1=N\c1ccccc1` = 1.5

Reported logP of `NC1=CC(=O)C(=O)c2cccnc21` : 1.2

logP for `O=C1C(=O)c2c(ccc3ccccc23)C(O)=C1CCCC1CCCCC1` is 6.63

The compound listed as `CC(C)CCC1=CC(=O)c2ccccc2C1=O` has a reported logP of 4

Lab note: measured logP of `CCCCCCCCCCC1=C(O)C(=O)c2ccc(Br)cc2C1=O` was 7.17

Query `O=C1C=C(Nc2ccc(Cl)cc2)/C(=N/c2ccc(Cl)cc2)c2cccnc21` yields logP of 5.6

Measured logP, `O=C1C(=O)C2=C(CCCC2)C(O)=C1CCCC1CCCCC1` : 5.93

The compound `CCCCCCCCCCCCCCCC/N=C1\C=C(O)c2ncccc2C1=O` showed logP equal to 7.8

GET /value?item= `O=C1C=C(NCCCCC2CCCCC2)c2ccccc2C1=O` &field=logP returns 6.11

The measured logP associated with `CN(C)CCCN(C1=CC(=O)C(=O)c2ccccc21)c1ccccc1` reads 3.4

`O=C1C(=O)c2ccccc2C(O)=C1CCCC1CCCCC1` has a reported logP of 5.31

What the record says about CCCC(C)COC1=CC(=O)C(=O)c2ccccc21 (centres undefined) : logP is 3.38

Note to self: logP recorded for `COc1ccc(NC2=CC(=O)C(=O)c3ccccc32)cc1` was 1.9

Lab note: measured logP of `O=C1C(O)=C(CCCCCCCCC2CCCCC2)C(=O)c2ccccc21` was 7.81

Field logP (entry `CC(C)CCC1=C(O)C(=O)c2ccccc2C1=O` ) reads 3.87

Recorded logP (compound `CCCCCCCCCC1=C(O)C(=O)c2sccc2C1=O` ): 5.06

# compound `CCOC1=CC(=O)C(=O)c2ccccc21` ; its logP = 1.2

`NC1=CC(=O)c2ncccc2/C1=N\c1ccc(Cl)cc1` has a reported logP of 2.5

// logP lookup, compound = `CCCCCCCCCCCCSC1=C(O)C(=O)c2cccnc2C1=O` , result: 6.62

The recorded logP for entry `CCN(CC)CCCC/N=C1/C=C(O)C(=O)c2ccccc21` equals 3.79

The compound `CCCCCCCCCCCCCCSC1=C(O)C(=O)c2cccnc2C1=O` showed logP equal to 8.62
